- system-name: Human Glucocorticoid Receptor (hGR) (Homo sapiens, UniProt P04150)
- Construct: the resultant supernatant (=cytosol of IM9 cells) was centrifuged at 103,000 g for 60 minutes; host or cells: IM9 human lymphoblast cell line (cytosol fraction)
- Sequence (P04150 whole entry): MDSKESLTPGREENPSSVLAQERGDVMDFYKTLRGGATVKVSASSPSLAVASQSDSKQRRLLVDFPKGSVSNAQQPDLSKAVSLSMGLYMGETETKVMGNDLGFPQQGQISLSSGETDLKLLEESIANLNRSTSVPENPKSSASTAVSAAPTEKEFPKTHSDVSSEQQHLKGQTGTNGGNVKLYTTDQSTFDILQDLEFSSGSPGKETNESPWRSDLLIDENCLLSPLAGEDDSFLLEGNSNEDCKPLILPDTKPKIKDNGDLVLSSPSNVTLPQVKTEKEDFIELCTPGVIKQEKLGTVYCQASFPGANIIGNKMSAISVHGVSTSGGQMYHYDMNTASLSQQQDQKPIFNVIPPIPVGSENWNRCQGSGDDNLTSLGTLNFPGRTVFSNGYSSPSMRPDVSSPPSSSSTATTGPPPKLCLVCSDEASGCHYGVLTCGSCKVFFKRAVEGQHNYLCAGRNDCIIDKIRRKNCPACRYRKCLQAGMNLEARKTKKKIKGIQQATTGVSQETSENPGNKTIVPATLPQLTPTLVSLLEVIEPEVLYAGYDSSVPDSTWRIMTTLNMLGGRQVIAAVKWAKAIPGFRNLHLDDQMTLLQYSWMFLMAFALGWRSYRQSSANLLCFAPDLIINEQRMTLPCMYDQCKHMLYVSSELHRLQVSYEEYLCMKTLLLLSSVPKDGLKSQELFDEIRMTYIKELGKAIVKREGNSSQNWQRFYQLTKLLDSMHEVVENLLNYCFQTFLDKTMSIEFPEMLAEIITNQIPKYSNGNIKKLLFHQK
- test-protocol: Human Glucocorticoid Receptor (hGR) Ligand-Binding Assay (competitive 3H-dexamethasone binding, IM9 cytosol)
- reported-conditions: compound at 1 μM; competition with 3H-dexamethasone; cytosol of IM9 cells; read-out: % inhibition hGR at 1 μM
reported-metric: inhibition at 1 µM

COc1cc(Cn2ncc3cc(N4C(=O)C[C@H](NC(=O)C5CC5)C4c4ccccc4)ccc32)ccn1 (stereo in doubt) [Example 40] :: 40 to 60%
CC(F)(F)C(=O)N[C@H]1CC(=O)N(c2ccc3c(cnn3C3CCN(C(=O)C4CC4)CC3)c2)C1c1ccccc1 (stereo in doubt) [Example 35] :: 60 to 85%
Cn1cc(-n2ncc3cc(N4C(=O)C[C@H](NC(=O)c5cscn5)[C@H]4c4ccccc4)ccc32)ccc1=O [Example 44] :: 60 to 85%
Cc1ccccc1[C@@H]1[C@@H](NC(=O)C2CC2)CC(=O)N1c1ccc2c(cnn2-c2ccc(=O)n(C)c2)c1 [Example 41] :: 40 to 60%
Cn1ccc(Cn2ncc3cc(N4C(=O)C[C@H](NC(=O)C(C)(F)F)C4c4ccccc4)ccc32)n1 (stereo in doubt) [Example 32] :: 60 to 85%
Cn1cc(-n2ncc3cc(N4C(=O)C[C@H](NC(=O)C5(F)CC5)[C@H]4c4ccccc4)ccc32)ccc1=O [Example 18] :: > 85%

Now turn to the next compound.
Notebook: Cc1nc(C(=O)N[C@H]2CC(=O)N(c3ccc4c(cnn4-c4ccc(=O)n(C)c4)c3)[C@@H]2c2ccccc2)no1 [Example 51] , inhibition at 1 µM read as > 85%
